- System: BKV (Dunlop)
- experimentalProtocol: BKV replication in Vero cell line, extracellular BKV DNA load by qPCR
- Format: cell-based, BK virus
- particulars: Betapolyomavirus hominis, 48 h; Vero cells, BKV Dunlop, two days of treatment; read-out: IC50, inhibition of viral replication
experimentalEndpoint: IC50

The observed IC50 for Nc1ccn(C2OC(CO)C(O)C2(F)F)c(=O)n1 (stereo not shown) [gemcitabine] when tested with BKV (Dunlop) stands at 1.5 to 2 nM

This collection of values is drawn from patent US20160250245A1.
